target: Polyphenol oxidase 4 (Agaricus bisporus, UniProt C7FF05)
Sequence (C7FF05 whole entry): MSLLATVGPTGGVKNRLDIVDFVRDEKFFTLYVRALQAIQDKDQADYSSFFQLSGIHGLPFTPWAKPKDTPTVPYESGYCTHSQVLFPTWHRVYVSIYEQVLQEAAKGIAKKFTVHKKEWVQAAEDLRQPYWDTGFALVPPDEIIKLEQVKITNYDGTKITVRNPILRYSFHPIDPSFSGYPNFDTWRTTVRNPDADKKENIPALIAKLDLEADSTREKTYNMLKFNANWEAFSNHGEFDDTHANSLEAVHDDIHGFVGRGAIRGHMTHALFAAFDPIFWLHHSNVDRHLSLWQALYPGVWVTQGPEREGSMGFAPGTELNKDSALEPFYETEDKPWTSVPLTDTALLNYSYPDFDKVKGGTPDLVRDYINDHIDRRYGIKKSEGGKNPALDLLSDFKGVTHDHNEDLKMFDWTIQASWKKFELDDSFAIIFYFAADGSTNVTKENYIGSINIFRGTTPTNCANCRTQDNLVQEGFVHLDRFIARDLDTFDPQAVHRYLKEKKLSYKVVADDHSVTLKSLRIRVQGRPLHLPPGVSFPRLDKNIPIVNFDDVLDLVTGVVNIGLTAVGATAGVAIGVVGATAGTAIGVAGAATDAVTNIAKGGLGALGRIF
observable: pIC50
One number for each entry, as −log10 of the molar value.

Input line: Recorded pIC50 for COc1c(O)cc2occ(-c3ccc(O)cc3)c(=O)c2c1O [Tectorigenin] , please?
Output line: 8.85

Cited source: BindingDB's records for PubMed 39026645
